Biological target: SARS-CoV-2 wild type spike protein (on reporter virus particles) (SARS-CoV-2, UniProt P0DTC2 14-1273)
Test: cell-based or functional assay
Label 1 when PsV Neut Assay IC50 >= 1 nM; otherwise 0.

Worked cases, answers included:
binder	category
A-9 (antibody, V domains shown) VH: EVQLVESGGGLVKPGRSLRLSCAASGFTFADYAMSWFRQAPGKGLEWVGFIRSKPYGGTTEYAASVKGRFTISRDDSKSIAYLQMNSLKTEDTAVYYCSRDPWYCSGGDCYAVTGSWFDPWGQGTLVTVSS VL: DIVLTQSPSSLSASVGDRVTITCQASQDIKKYLNWYQQKPGKAPKLLIYDVSNLETGVPSRFSGSGSGTDFTFTISSLQPEDVAIYYCQQYDNLPQTFGQGTKVDIK	0
A-7 (antibody, V domains shown) VH: EVQLVESGAEVRKPGASVKVSCKASGYTFTFYYIHWVRQAPGQGLEWMGWISPISGATNYAQTFQGRVTMTRDTSITTAYMELSSLTSDDTAVYYCAREKYYDSSGSSDYWGQGTLVTVSS VL: QPVLTQPPSVSAAPGQNVTIFCSGSSSNIGNNYVSWYQQLPGPAPKLLIYENNKRPSGIPDRFSGSKSGTSATLGITGLQTGDEADYYCGTWESSLSAPRVFGSGTKLTVL	0
A-6 (antibody, V domains shown) VH: QVQLVQSGGGVVQPGRSLRLSCAASGFTFSNFAMHWVRQAPGKGLEWVAVILYDGINKYYADSVKGRFTISRGNSKNTLSLQMNSLRAEDTAVYYCARAQNYYDRSGTLQLDAFDIWGQGTMVTVSS VL: DIVMTQSPSSLSASVGDRVTITCRASQGIRNDLGWYQQKPGKAPKLLIYAASSLQSGVPSRFSGSGSGTDFTLTISSLQPEDFATYYCLQDYNYPLTFGGGTKVEIK	1
A-16 (antibody, V domains shown) VH: QVQLVESGGGLVQPGRSLRLSCAASGFTFDDYAMHWVRQAPGKGLEWVSGISWNSGTIGYADSVKGRFIISRDNAKNSLYLQMNSLRGEDMALYYCGKDRKREDPSLGGMDVWGQGTTVTVSS VL: SYELTQPPSVSVAPGQTARITCGGNNIGSKSVHWYQQKPGQAPVLVVYDDTDRPSGIPERFSGSNSGNTATLTISRVEAGDEADYYCQVWDSSSDHYVFGTGTKLTVL	1
A-4 (antibody, V domains shown) VH: EVQLVESGGGLIQPGGSLTLSCAASGFTVSSNYMNWVRQAPGKGLEWVSVIYSGGSTYYADSVKGRFTISRDNSKNTLYLQMNSLRAEDTAVYYCAREVYSYFDYWGQGTLVTVSS VL: DIQLTQSPSFLSASVGDRVTITCRASQGISSYLAWYQQKPGKAPKLLIYAASTLQSGVPSRFSGSGSGTEFTLTISRLQPEDLATYYCQQLNSYPPHTFGQGAKLEIK	1

I'd appreciate it if you could say whether A-11 (antibody, V domains shown) VH: EVQLVESGAEVKKPGSSVMVSCKASGGTFSRYAISWVRQAPGQGLEWMGGIIPVFGIVHYAQKFQGRVTITADKSTSTAYMELSSLRSEDTAAYYCARDRQQQPSPYYYHGMDVWGQGTTVTVSS VL: DIRLTQSPSSLSASVGDRVTITCQASQDISNYLNWYQQKPGKAPKLLIYDASNLETGVPTRFSGSGSGTDFTFTISSLQPEDIATYYCQQYDNLPLFGGGTKVEIK has PsV Neut Assay IC50 at least equal to 1 nM.
0

Try A-3 (antibody, V domains shown) VH: EVQLLESGPGLVKPSETLSLTCTVSGGSINSRSYYWGWIRQPPGKGLEWIGSIYYSGSTYYNPSLKSRVTISVDTSKNQFSLKLSSVIAADTAVYFCARLEQWELPGGWFDPWGQGTLVTVSS VL: NFMLTQPHSVSESPGKTVTISCTRSSGSIASNYVQWYQQRPGSAPTTVIYEDNQRPSGVPDRFSGSIDISSNSASLTISGLKTEDEADYSCQSSDSSNVVFGGGTKLTVL next.
0

Try A-5 (antibody, V domains shown) VH: QVQLVESGGGLIQPGESLRLSCAASEFIVSRNYMSWVRQAPGKGLEWVSVIYSGGNTYYADSVKGRFTISRDNSKNTLYLQMNSLRAEDTAVYYCARDLRGPGCFDFWGQGTTVTVSS VL: DIQVTQSPSSLSASVGDRVTITCQASQDISNFLNWYQQKPGKAPKLLIYDASNLETGVPSRFSASGSGTEFTFTISSLQPEDIATYYCQQYDNLRVTFGGGTKLEIK next.
1

Just for reference, patent US20260217797A1 is where these values come from.
